Values compiled from patent US20120021972A1.

# cAMP release, % activity, 10 nM listing for each entry below
biological target: human GLP-1 receptor (human, UniProt P43220 24-463); assay: cell-based or functional assay
Sequence (P43220 24-463): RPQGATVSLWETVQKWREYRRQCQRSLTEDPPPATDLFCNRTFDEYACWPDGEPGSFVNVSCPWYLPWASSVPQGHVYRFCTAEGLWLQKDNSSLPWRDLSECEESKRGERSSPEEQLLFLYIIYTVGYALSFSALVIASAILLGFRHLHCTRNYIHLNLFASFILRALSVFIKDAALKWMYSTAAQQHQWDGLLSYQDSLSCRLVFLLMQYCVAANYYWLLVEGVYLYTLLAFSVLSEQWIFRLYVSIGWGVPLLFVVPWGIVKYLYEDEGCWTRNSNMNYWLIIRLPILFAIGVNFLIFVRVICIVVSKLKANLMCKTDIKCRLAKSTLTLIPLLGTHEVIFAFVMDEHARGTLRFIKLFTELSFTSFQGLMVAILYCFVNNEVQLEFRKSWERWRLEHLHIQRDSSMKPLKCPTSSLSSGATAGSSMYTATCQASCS
Non-standard residues stand in square brackets, D forms with d. No end group written: not given here. 2Cl,4OMe‑APPA = 2-amino-5-(2-chloro-4-methoxyphenyl)pentanoic acid; Bip(2'-Et-4'-OMe) = CCc1cc(OC)ccc1-c1ccc(C[C@H](N)C(=O)O)cc1; Leu(5,5,5,5',5',5'-F6) = N[C@@H](CC(C(F)(F)F)C(F)(F)F)C(=O)O; αMePhe(2-F) = C[C@](N)(Cc1ccccc1F)C(=O)O; hhPhe = N[C@@H](CCCc1ccccc1)C(=O)O; aThr = C[C@H](O)[C@H](N)C(=O)O; CNB = not defined here; Aib = CC(C)(N)C(=O)O

Binder: H[Aib]QGTFTSD[Bip(2'-Et-4'-OMe)][2Cl,4OMe‑APPA] [Seq. ID. No. 68: H-Aib-QGTFTSD-Bip(OMe)-(2Cl, 4OMe-APPA)]
Uom: %
cAMP release, % activity, 10 nM: 80
//
Binder: H[Aib][Leu(5,5,5,5',5',5'-F6)]G[aThr][αMePhe(2-F)][aThr]SD[Bip(2'-Et-4'-OMe)][hhPhe] [Seq. ID. No. 228: H-Aib-(Hfl)-G-T(allo)-(α-Me-2F-Phe)-T(allo)-SD-Bip(OMe)-(APPA)]
Uom: %
cAMP release, % activity, 10 nM: 99
//
Binder: Ac-H[Aib]QG[aThr][αMePhe(2-F)][aThr]SD[Bip(2'-Et-4'-OMe)][hhPhe] (also: reduced (CH2) bond between 10 and 11) [Seq. ID. No. 185: CH3CO-H-Aib-QG-T(allo)-(α-Me-2F-Phe)-T(allo)-SD-Bip(OMe)-(CH2)-(APPA)]
Uom: %
cAMP release, % activity, 10 nM: 85
//
Binder: H[Aib][CNB]G[aThr][αMePhe(2-F)][aThr]SD[Bip(2'-Et-4'-OMe)][hhPhe] (reading uncertain; also: reduced (CH2) bonds between 9-10 and 10-11) [Seq. ID. No. 202: H-Aib-(CNB)-G-T(allo)-(α-Me-2F-Phe)-T(allo)-SD-(CH2)-Bip(OMe)-(CH2)-(APPA)]
Uom: %
cAMP release, % activity, 10 nM: 99
